FYI, the data here is from patent US20090191187A1.

- target-or-test-system: T1, human interleukin-1 receptor on cells (MRC-5 human embryonic lung fibroblasts; human blood cells) (human, UniProt P14778 18-569)
- T1 sequence (looked up): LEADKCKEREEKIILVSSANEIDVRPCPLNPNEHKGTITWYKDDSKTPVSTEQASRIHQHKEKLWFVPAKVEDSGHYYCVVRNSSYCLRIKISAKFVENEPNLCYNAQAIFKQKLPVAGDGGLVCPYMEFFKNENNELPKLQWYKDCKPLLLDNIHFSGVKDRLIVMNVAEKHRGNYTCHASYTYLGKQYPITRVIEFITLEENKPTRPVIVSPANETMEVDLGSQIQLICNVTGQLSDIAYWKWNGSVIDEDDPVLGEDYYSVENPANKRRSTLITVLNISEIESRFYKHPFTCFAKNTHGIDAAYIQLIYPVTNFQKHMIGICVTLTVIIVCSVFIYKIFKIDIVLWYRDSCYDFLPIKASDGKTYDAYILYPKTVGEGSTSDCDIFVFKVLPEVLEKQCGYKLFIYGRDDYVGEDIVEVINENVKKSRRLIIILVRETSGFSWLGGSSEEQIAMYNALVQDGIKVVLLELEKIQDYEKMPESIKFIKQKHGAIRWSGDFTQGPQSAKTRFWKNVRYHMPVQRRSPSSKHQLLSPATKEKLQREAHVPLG
- assay-notes: cell-based or functional assay
Form field: Bioassay (IC50 in relation to 2D8), 2nd experiment (one value per entry).

Consider the worked cases shown below.
- HUM2/3 (antibody, V domains shown, also called combination of HUR HuVH v2 and HUR HuVK v3) VH: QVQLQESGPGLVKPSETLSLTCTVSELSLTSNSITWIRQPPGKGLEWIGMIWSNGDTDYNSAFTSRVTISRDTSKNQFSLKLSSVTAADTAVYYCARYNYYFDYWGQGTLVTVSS VL: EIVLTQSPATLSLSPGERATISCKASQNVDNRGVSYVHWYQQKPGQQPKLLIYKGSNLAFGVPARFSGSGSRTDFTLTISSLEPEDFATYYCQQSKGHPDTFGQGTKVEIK: 1.5 relative to 2D8
- DEI2/4 (antibody, V domains shown, also called combination of HURDIVHv2 and HURDIVKv4) VH: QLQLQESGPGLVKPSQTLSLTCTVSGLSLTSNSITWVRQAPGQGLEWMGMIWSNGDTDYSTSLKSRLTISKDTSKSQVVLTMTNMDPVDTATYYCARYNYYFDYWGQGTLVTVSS VL: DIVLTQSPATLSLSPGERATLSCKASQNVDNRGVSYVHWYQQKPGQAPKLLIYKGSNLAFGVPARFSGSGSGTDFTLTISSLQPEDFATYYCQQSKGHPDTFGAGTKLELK: 2 relative to 2D8

Please turn your attention to the following entry.
## Input Can you look up the measured Bioassay (IC50 in relation to 2D8), 2nd experiment of DEI5/5 (antibody, V domains shown, also called combination of HURDIVHv5 and HURDIVKv5) VH: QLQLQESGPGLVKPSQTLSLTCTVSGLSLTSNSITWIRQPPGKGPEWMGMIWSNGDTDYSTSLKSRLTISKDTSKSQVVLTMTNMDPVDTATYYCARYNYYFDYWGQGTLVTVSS VL: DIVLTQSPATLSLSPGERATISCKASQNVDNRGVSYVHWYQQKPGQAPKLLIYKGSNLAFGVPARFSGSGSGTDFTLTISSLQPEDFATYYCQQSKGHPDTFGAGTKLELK for me?
## Output 3.9 relative to 2D8
